- assay_target: SARS-CoV-2 spike protein on pseudotyped lentivirus (Wuhan Reference Pseudovirus) (SARS-CoV-2, UniProt P0DTC2 14-1273)
- assay_procedure: cell-based or functional assay
test_readout: infectivity % under 10 ug/mL VHH treatment
Enter the number, and then the unit.

binder	obs_value
PP1107 MBP-5HVZ-PAPA-RN-22-H6 (VHH, Form: Dimer) VHH: QVQLVESGGGLVQPGGSLRLSCAASGSISEINLLHWFRQAPGKQREWVATMTSGGSTDYADSVKGRFTISRDNAKNTVYLQMNSLKPEDTAVYYCAADEFTKYGHGRYWGQGTQVTVSS	34.3%

Per the records, this binder ( PP1146 MBP-5HVZ-PAPA-R2d-D3-H6 (VHH, Form: Dimer) VHH: QVQLVESGGGLVQPGGSLRLSCAASGHIFSINNAAWVRQAPGKSREGVATIHSGGGTYYSDSVKGRFTISRDNAKNTVYLQMNSLKPEDTAVYYCNAEVSTGAGSRGRVSDVYWGQGTQVTVSS ) has infectivity % under 10 ug/mL VHH treatment equal to 32.8%
